Target sequence: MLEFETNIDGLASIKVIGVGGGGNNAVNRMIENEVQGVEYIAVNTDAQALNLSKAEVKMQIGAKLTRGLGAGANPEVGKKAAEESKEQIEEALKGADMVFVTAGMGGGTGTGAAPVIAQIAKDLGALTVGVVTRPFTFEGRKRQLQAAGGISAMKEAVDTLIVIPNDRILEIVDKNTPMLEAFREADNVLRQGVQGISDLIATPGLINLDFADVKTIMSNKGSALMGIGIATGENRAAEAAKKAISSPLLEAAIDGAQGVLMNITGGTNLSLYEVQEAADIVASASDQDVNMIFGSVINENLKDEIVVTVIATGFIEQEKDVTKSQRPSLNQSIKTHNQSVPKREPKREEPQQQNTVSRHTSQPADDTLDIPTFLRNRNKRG
assay-endpoint: IC50 (nM)
Record the value in nM, omitting the unit from your answer.

Task: For the molecule shown here, C[n+]1cc2c3c(ccc2c2ccc4cc5c(cc4c21)OCO5)OCO3.[Cl-] [SANGUINARIUM CHLORIDE] , give the reported IC50.
Output: 2720

###

Assign MIC to each entry below.
Test system: Streptococcus pyogenes
Test: Antibacterial activity against erythromycin-resistant Streptococcus pyogenes 2 assessed as bacterial growth inhibition incubated for 24 hrs by CLSI protocol based broth microdilution method
Assay type: functional
Record the value in µg/mL, omitting the unit from your answer.

Task: For the compound shown here, "C[n+]1c2ccccc2c(/C=C/c2ccc(Cl)cc2Cl)c2ccccc21.[I-]" , give the reported MIC.
Output: 0.5

Task: For the compound shown here, "CCCCCNc1c2ccccc2[n+](C)c2ccccc12.[Cl-]" , give the reported MIC.
Output: 32

Task: For the compound shown here, "Cc1ccc(-c2c3ccccc3[n+](C)c3ccccc23)cc1.[I-]" , give the reported MIC.
Output: 16

Task: For the compound shown here, "COc1ccccc1/C=C/c1c2ccccc2[n+](C)c2ccccc12.[I-]" , give the reported MIC.
Output: 0.5

Task: For the compound shown here, "C[n+]1c2ccccc2c(NC2CCCCC2)c2ccccc21.[Cl-]" , give the reported MIC.
Output: 64

Task: For the compound shown here, "CCOc1ccc(/C=C/c2c3ccccc3[n+](C)c3ccccc23)cc1.[I-]" , give the reported MIC.
Output: 0.5

Task: For the compound shown here, "COc1ccc(/C=C/c2c3ccccc3[n+](C)c3ccccc23)cc1OC.[I-]" , give the reported MIC.
Output: 4

Task: For the compound shown here, "C[n+]1c2ccccc2c(-n2cccc2)c2ccccc21.[Cl-]" , give the reported MIC.
Output: 64

###

System: Staphylococcus aureus
Assay: Antibacterial activity against Staphylococcus aureus assessed as inhibition of bacterial growth measured by broth microdilution method
Type: functional
Details: time 24 hrs
assay-endpoint: log10 of MIC (log10 of the value in µg/mL)
Please note: log10 values; quantity MIC; unit µg/mL.

Task: For the compound shown here, "C[n+]1c2ccccc2c(-c2cccc(F)c2)c2ccccc21.[I-]" , give the reported log10 of MIC.
Output: 1.20

Task: For the compound shown here, "COc1cccc(-c2c3ccccc3[n+](C)c3ccccc23)c1.[I-]" , give the reported log10 of MIC.
Output: 0.90

Task: For the compound shown here, "CCCCCCCNc1c2ccccc2[n+](C)c2ccccc12.[Cl-]" , give the reported log10 of MIC.
Output: 1.20

Task: For the compound shown here, "C[n+]1c2ccccc2c(-c2ccccc2)c2ccccc21.[I-]" , give the reported log10 of MIC.
Output: 0.90

Task: For the compound shown here, "C[n+]1c2ccccc2c(/C=C/c2ccc(-c3ccccc3)cc2)c2ccccc21.[I-]" , give the reported log10 of MIC.
Output: 0.00

Task: For the compound shown here, C[n+]1cc2c3c(ccc2c2ccc4cc5c(cc4c21)OCO5)OCO3.[Cl-] [SANGUINARIUM CHLORIDE] , give the reported log10 of MIC.
Output: 0.90

Task: For the compound shown here, "CCc1ccc(/C=C/c2c3ccccc3[n+](C)c3ccccc23)cc1.[I-]" , give the reported log10 of MIC.
Output: 0.00

Task: For the compound shown here, "COc1ccccc1C#Cc1c2ccccc2[n+](C)c2ccccc12.[I-]" , give the reported log10 of MIC.
Output: 0.60

Task: For the compound shown here, "C[n+]1c2ccccc2c(C#Cc2ccc(-c3ccccc3)cc2)c2ccccc21.[I-]" , give the reported log10 of MIC.
Output: 1.20

Task: For the compound shown here, "COc1ccc(C#Cc2c3ccccc3[n+](C)c3ccccc23)cc1.[I-]" , give the reported log10 of MIC.
Output: 0.60

Task: For the compound shown here, "C[n+]1c2ccccc2c(C#Cc2ccccc2)c2ccccc21.[I-]" , give the reported log10 of MIC.
Output: 0.30

Task: For the compound shown here, "CCCCCCCCNc1c2ccccc2[n+](C)c2ccccc12.[Cl-]" , give the reported log10 of MIC.
Output: 0.90

Task: For the compound shown here, "CCCCc1ccc(/C=C/c2c3ccccc3[n+](C)c3ccccc23)cc1.[I-]" , give the reported log10 of MIC.
Output: 0.30

Task: For the compound shown here, "Cc1ccc(/C=C/c2c3ccccc3[n+](C)c3ccccc23)cc1.[I-]" , give the reported log10 of MIC.
Output: 0.00

###

System: Streptococcus pyogenes
Assay: Antibacterial activity against erythromycin-resistant Streptococcus pyogenes 2 assessed as bacterial growth inhibition incubated for 24 hrs by CLSI protocol based broth microdilution method
Type: functional
assay-endpoint: MIC (µg/mL)
Record the value in µg/mL, omitting the unit from your answer.

Task: For the molecule shown here, "CCc1ccc(-c2c3ccccc3[n+](C)c3ccccc23)cc1.[I-]" , give the reported MIC.
Output: 4

Task: For the molecule shown here, "COc1cccc(-c2c3ccccc3[n+](C)c3ccccc23)c1.[I-]" , give the reported MIC.
Output: 32

Task: For the molecule shown here, "COc1ccccc1C#Cc1c2ccccc2[n+](C)c2ccccc12.[I-]" , give the reported MIC.
Output: 16

Task: For the molecule shown here, "Cc1ccccc1C#Cc1c2ccccc2[n+](C)c2ccccc12.[I-]" , give the reported MIC.
Output: 16

Task: For the molecule shown here, "COc1ccc(C#Cc2c3ccccc3[n+](C)c3ccccc23)cc1.[I-]" , give the reported MIC.
Output: 16

Task: For the molecule shown here, "C[n+]1c2ccccc2c(/C=C/c2ccc(F)cc2)c2ccccc21.[I-]" , give the reported MIC.
Output: 0.5

Task: For the molecule shown here, "CCOc1ccc(C#Cc2c3ccccc3[n+](C)c3ccccc23)cc1.[I-]" , give the reported MIC.
Output: 8

Task: For the molecule shown here, "C[n+]1c2ccccc2c(-c2ccc(-c3ccccc3)cc2)c2ccccc21.[I-]" , give the reported MIC.
Output: 1

Task: For the molecule shown here, "C[n+]1c2ccccc2c(/C=C/c2ccccc2)c2ccccc21.[I-]" , give the reported MIC.
Output: 0.5

Task: For the molecule shown here, COc1ccc2cc3[n+](cc2c1OC)CCc1cc2c(cc1-3)OCO2.[Cl-] [BERBERINE CHLORIDE] , give the reported MIC.
Output: 64

Task: For the molecule shown here, C[n+]1cc2c3c(ccc2c2ccc4cc5c(cc4c21)OCO5)OCO3.[Cl-] [SANGUINARIUM CHLORIDE] , give the reported MIC.
Output: 2

Task: For the molecule shown here, "COc1ccc(-c2c3ccccc3[n+](C)c3ccccc23)cc1.[I-]" , give the reported MIC.
Output: 16

Task: For the molecule shown here, "C[n+]1c2ccccc2c(/C=C/c2ccc(Cl)cc2)c2ccccc21.[I-]" , give the reported MIC.
Output: 1

Task: For the molecule shown here, "C[n+]1c2ccccc2c(C#Cc2ccccc2)c2ccccc21.[I-]" , give the reported MIC.
Output: 8

Task: For the molecule shown here, "Cc1ccc(/C=C/c2c3ccccc3[n+](C)c3ccccc23)cc1.[I-]" , give the reported MIC.
Output: 0.5

Task: For the molecule shown here, "CCCCc1ccc(-c2c3ccccc3[n+](C)c3ccccc23)cc1.[I-]" , give the reported MIC.
Output: 2

Task: For the molecule shown here, "C[n+]1c2ccccc2c(-c2cccc(F)c2)c2ccccc21.[I-]" , give the reported MIC.
Output: 16

###

Assign MIC to each entry below.
Test system: Staphylococcus aureus
Assay: Antibacterial activity against Staphylococcus aureus assessed as inhibition of bacterial growth measured by broth microdilution method
Format: functional
Conditions: time 24 hrs

Task: For the molecule shown here, "C[n+]1c2ccccc2c(Nc2ccccc2C(F)(F)F)c2ccccc21.[Cl-]" , give the reported MIC.
Output: > 64 µg/mL

Task: For the molecule shown here, "C[n+]1c2ccccc2c(/C=C/c2ccc(C(C)(C)C)cc2)c2ccccc21.[I-]" , give the reported MIC.
Output: 0.5 µg/mL

Task: For the molecule shown here, "COc1ccc(-c2c3ccccc3[n+](C)c3ccccc23)cc1.[I-]" , give the reported MIC.
Output: 8 µg/mL

Task: For the molecule shown here, "C[n+]1c2ccccc2c(-c2cccc([N+](=O)[O-])c2)c2ccccc21.[I-]" , give the reported MIC.
Output: 32 µg/mL
